- system: UniProtKB P14902
- Sequence (P14902 whole entry): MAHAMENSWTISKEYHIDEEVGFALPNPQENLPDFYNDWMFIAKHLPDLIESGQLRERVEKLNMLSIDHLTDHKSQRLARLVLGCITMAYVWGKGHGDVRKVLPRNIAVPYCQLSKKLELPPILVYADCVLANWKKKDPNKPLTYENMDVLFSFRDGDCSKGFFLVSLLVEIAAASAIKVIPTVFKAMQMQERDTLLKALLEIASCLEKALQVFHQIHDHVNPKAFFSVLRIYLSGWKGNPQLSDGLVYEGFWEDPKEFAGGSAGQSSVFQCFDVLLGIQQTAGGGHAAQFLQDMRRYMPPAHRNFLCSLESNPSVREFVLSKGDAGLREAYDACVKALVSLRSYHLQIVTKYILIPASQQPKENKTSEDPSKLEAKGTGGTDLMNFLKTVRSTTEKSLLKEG
- assay: IDO1 Human Whole Blood Assay
- Assay type: cell-based
- test.settings: WBLD taken as whole blood; read-out: WBLD IC50
pIC50: −log10 of the molar value.
parameter.measured: pIC50

> print(dat)
                                   molecule            system  endpoint.result
1  Cc1ccc(F)cc1OC1CCN(C(=O)Cn2nc(C(=O)N3C[C@@H](C)O[C@@H](C)C3)c3c2CCC3)CC1 [Example 90]  UniProtKB P14902             6.85
2  Cc1ccccc1OC1CCN(C(=O)Cn2nc(C(=O)N3CC[C@@H](O)[C@@H](F)C3)c3c2CCC3)CC1 [Example 40]  UniProtKB P14902             6.97
3  Cc1ccccc1OC1CCN(C(=O)Cn2nc(C(=O)N3CCC(O)(C(F)F)CC3)c3c2CCCC3)CC1 [Example 22]  UniProtKB P14902             7.03
4  Cc1ccccc1OC1CCN(C(=O)Cn2nc(C(=O)N3CCN(C(=O)CO)CC3)c3c2CCCC3)CC1 [Example 38]  UniProtKB P14902             7.48
5  Cc1cc(F)ccc1OC1CCN(C(=O)Cn2nc(C(=O)N3CCC(OCCO)CC3)c3c2CCCC3)CC1 [Example 76]  UniProtKB P14902             7.22
6  Cc1ccccc1NC1CCN(C(=O)Cn2nc(C(=O)N3CCC(F)(CO)CC3)c3c2C[C@H]2C[C@@H]32)CC1 [Example 176]  UniProtKB P14902             6.40
7  CC(=O)NC1CCN(C(=O)c2nn(CC(=O)N3CCC(Oc4ccccc4C)CC3)c3c2CCCC3)CC1 [Example 24]  UniProtKB P14902             6.50
